# STUDY SYSTEM: NAD(P)H dehydrogenase [quinone] 1 (Mus musculus) (UniProt Q64669)
# Sequence (Q64669 whole entry): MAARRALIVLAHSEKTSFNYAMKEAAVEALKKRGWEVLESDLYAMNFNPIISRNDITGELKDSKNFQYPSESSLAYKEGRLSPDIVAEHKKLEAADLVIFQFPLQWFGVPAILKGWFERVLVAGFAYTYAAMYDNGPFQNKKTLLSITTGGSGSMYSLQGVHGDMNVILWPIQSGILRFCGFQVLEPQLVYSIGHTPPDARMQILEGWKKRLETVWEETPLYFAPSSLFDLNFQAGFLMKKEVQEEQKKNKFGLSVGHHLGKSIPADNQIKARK
# TEST NAME: Induction of quinone reductase 1 in mouse Hepa 1c1c7 cells assessed as drug level required to double enzyme activity by MTT assay
MEASUREMENT LABEL: CD

Solved entries:
O=S(=O)([O-])Oc1ccc(/C=C/c2cc(O)cc(O)c2)cc1.[K+]    > 6.9 µM
O=S(=O)([O-])Oc1cc(O)cc(/C=C/c2ccc(O)cc2)c1.[K+]    2.6 µM
O=S(=O)([O-])Oc1ccc(/C=C/c2cc(OS(=O)(=O)[O-])cc(OS(=O)(=O)[O-])c2)cc1.[K+].[K+].[K+]    > 11.7 µM

Provide reported CD for each item, in the same order as listed.
1. O=S(=O)([O-])Oc1ccc(/C=C/c2cc(O)cc(OS(=O)(=O)[O-])c2)cc1.[K+].[K+]
2. O=S(=O)([O-])Oc1cc(/C=C/c2ccc(O)cc2)cc(OS(=O)(=O)[O-])c1.[K+].[K+]

A:
> 10.1 µM
> 10.1 µM

====

# TEST NAME: Inhibition of TNF-alpha-induced NF-kappaB activity expressed in HEK293 cells after 48 hrs by luciferase reporter gene assay
# Type: cell-based
# STUDY CONDITIONS: HEK293, 48 h
MEASUREMENT LABEL: pIC50
Answers are plain numbers, as −log10 of the molar value.

Q: Which pIC50 is reported for this compound? `O=S(=O)([O-])Oc1ccc(/C=C/c2cc(O)cc(O)c2)cc1.[K+]`
A: 4.74

====

# STUDY SYSTEM: Nitric oxide synthase, inducible (Mus musculus)
# Sequence (whole entry): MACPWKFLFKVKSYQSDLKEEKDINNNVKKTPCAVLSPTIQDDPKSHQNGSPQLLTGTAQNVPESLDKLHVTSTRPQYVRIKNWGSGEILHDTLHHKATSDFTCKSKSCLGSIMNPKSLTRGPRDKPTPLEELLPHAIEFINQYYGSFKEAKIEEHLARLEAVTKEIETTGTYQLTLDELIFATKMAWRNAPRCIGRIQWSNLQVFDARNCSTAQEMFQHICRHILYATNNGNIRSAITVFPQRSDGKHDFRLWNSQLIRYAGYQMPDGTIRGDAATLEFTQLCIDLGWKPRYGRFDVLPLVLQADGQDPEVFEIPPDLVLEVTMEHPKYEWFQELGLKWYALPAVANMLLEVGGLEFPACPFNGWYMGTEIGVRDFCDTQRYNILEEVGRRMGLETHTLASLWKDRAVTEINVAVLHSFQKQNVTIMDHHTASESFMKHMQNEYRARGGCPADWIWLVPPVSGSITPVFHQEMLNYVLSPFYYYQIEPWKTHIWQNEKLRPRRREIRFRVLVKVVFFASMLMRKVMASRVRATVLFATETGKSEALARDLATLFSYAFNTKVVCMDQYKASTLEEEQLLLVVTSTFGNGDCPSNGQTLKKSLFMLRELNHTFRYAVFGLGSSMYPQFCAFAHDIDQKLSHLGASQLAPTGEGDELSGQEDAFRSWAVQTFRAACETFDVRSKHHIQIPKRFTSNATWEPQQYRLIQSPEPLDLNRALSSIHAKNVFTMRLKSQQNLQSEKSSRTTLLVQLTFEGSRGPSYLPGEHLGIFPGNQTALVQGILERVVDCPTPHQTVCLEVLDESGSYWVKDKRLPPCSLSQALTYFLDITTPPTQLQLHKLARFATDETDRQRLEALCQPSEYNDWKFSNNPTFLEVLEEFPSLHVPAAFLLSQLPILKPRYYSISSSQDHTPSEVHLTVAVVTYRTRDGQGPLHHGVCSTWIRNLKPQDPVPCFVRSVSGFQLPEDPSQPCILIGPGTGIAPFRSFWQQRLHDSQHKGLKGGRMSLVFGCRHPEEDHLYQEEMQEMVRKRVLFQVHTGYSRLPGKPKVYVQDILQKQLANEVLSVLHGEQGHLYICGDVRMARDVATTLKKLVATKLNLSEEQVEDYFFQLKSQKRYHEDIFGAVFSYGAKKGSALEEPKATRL
# TEST NAME: Inhibition of iNOS-mediated nitric oxide production in LPS-stimulated mouse RAW 264.7 cells at 34 uM pretreated 30 mins before LPS challenge measured after 20 hrs by Griess reaction method relative to control
# Assay type: cell-based
Mark yes (1) for reported inhibition of 20% or greater; mark no (0) for anything smaller.

Below, 4 compounds whose answers are already recorded.
O=S(=O)([O-])Oc1ccc(/C=C/c2cc(O)cc(OS(=O)(=O)[O-])c2)cc1.[K+].[K+]    yes (1)
O=S(=O)([O-])Oc1cc(O)cc(/C=C/c2ccc(O)cc2)c1.[K+]    yes (1)
O=S(=O)([O-])Oc1ccc(/C=C/c2cc(OS(=O)(=O)[O-])cc(OS(=O)(=O)[O-])c2)cc1.[K+].[K+].[K+]    yes (1)
O=S(=O)([O-])Oc1cc(/C=C/c2ccc(O)cc2)cc(OS(=O)(=O)[O-])c1.[K+].[K+]    no (0)

Q: Decide: inhibition of `O=S(=O)([O-])Oc1ccc(/C=C/c2cc(O)cc(O)c2)cc1.[K+]` >= 20%?
A: yes (1)
